# Measurement description: Cytotoxicity against MDCK cells
# Format: cell-based, Canis lupus familiaris
# Condition parameters: dog
Can you tell me CC50 for the items I'm about to list?

**Q:** CC50 for C[C@@H]1O[C@@H](Oc2c(-c3ccc(O)c(O)c3)oc3cc(O)cc(O)c3c2=O)[C@H](O)[C@H](O)[C@H]1O ?
**A:** > 446 µM

**Q:** Okay, and O=c1c(O[C@@H]2O[C@H](CO)[C@@H](O)[C@H](O)[C@H]2O)c(-c2ccc(O)c(O)c2)oc2cc(O)cc(O)c12 ?
**A:** > 431 µM

**Q:** What do we get for O=c1cc(-c2ccc(O)c(O)c2)oc2cc(O[C@@H]3O[C@H](CO)[C@@H](O)[C@H](O)[C@H]3O)cc(O)c12 ?
**A:** > 446 µM

###

# Measurement description: Cytotoxicity against MDCK cells
# Type: cell-based, Canis lupus familiaris
# Condition parameters: dog
Readout label: CC50

**Q:** Entry C[C@@H]1O[C@@H](OC[C@H]2O[C@@H](Oc3c(-c4ccc(O)c(O)c4)oc4cc(O)cc(O)c4c3=O)[C@H](O)[C@@H](O)[C@@H]2O)[C@H](O)[C@H](O)[C@H]1O [RUTIN] : reported CC50 = ?
**A:** > 328 µM

**Q:** And then O=c1c(O[C@@H]2O[C@H](CO)[C@H](O)[C@H](O)[C@H]2O)c(-c2ccc(O)c(O)c2)oc2cc(O)cc(O)c12 [HYPEROSIDE] , what is it?
**A:** > 431 µM

**Q:** Same again, this time with O=c1c(O)c(-c2ccc(O)cc2)oc2cc(O)cc(O)c12 [KAEMPFEROL]
**A:** 581 µM
